# System: NCI-H460
# assay-procedure: NCI tumour cell line growth inhibition, 48 h
Calls of active or inactive are those of the source. Cut-off read from the data, not from the text of the source: active = GI50 up to about 1.1 µM and inactive = higher.
measurement-label: GI50

Input line: // returns reported GI50 for input COc1ccc(C2C(Cl)C(=O)N2NC(=O)c2ccc(N)cc2)cc1 (centres undefined)
Output line: > 100 µM (inactive)

Input line: I am curious: what GI50 value has been reported for CC(=O)OCCCC(NC(=O)OC(C)(C)C)C(=O)NC(CCCOC(C)=O)C(=O)NC(Cc1ccc([N+](=O)[O-])cc1)C(=O)NCC(=O)OCc1ccccc1 (centres undefined) ?
Output line: 15.6 µM (inactive)

Input line: # input molecule: `CCn1cc(C(=O)O)c(=O)c2cc(F)c(N3CCN(CN4C(=O)/C(=N\c5ncc(Cc6cc(OC)c(OC)c(OC)c6)c(N)n5)c5cc(Cl)ccc54)CC3)cc21` ; wanted: its GI50
Output line: > 100 µM (inactive)

Input line: Consider the molecule shown here: `COc1cccc(-n2nnc3c(N)nc(N)nc32)c1` What is its recorded GI50?
Output line: 94.4 µM (inactive)

====

Field: GI50. Provide a value for each of the compounds that follow.
# Tested on: UACC-257
# assay-procedure: NCI tumour cell line growth inhibition, 48 h
Activity calls are given as the source filed them. No stated cut-off is given here; in the data, active = GI50 up to about 1.1 µM and inactive = higher.

Input line: Find the recorded GI50 belonging to `CC(=O)N(O)[C@@H]1CC[C@H](n2cnc3c(N)ncnc32)C1` and report it.
Output line: > 100 µM (inactive)

Input line: Need GI50, item COC(=O)C(Cc1nc2ccccc2nc1O)C(=O)C(=O)Nc1ccc(F)cc1 (configuration not stated)
Output line: > 100 µM (inactive)

Input line: Reported GI50 for `Nc1ccc2c(c1)S(=O)(=O)c1cc(O)ccc1O2` : what is it?
Output line: > 100 µM (inactive)

Input line: What value of GI50 has been reported for the following compound? `CCOC(=O)/C=C\[C@H]1OC(C)(C)O[C@H]1[C@H](O)[C@H]1COC(C)(C)O1`
Output line: 22.6 µM (inactive)

Input line: Suppose we examine the compound `COc1ccc(/C=C/COC(C)=O)cc1OC` ; what GI50 value has been reported?
Output line: > 100 µM (inactive)

Input line: What does the data say about its GI50? Entry: CC1(C)[C@@H]2C[C@H]1c1cnc(-c3ccccn3)cc1C2[C@@H]1c2cc(-c3ccccn3)ncc2[C@@H]2C[C@H]1C2(C)C (some centres not stated)
Output line: 87.9 µM (inactive)

Input line: Dear colleague, I am looking for the recorded GI50 of the following compound: `COc1cc2c(cc1OC)-c1[nH]c3ccc([N+](=O)[O-])cc3c1CC(=O)N2`
Output line: 8.49 µM (inactive)

Input line: Recorded GI50 of `CN(C)CCC(/C=C/c1ccccc1)=N\Nc1c(F)c(F)c(F)c(F)c1F` , please.
Output line: 26.4 µM (inactive)

Input line: Looking for the measured GI50 of `Cc1ccc(C(=O)c2[nH]c(Nc3cc(C)ccn3)c(C(=S)Nc3ccccc3)c2N)cc1` , can you help?
Output line: > 100 µM (inactive)

Input line: Given the entry `O=Cc1cn(C(=O)c2ccccc2)c2ccccc12` , report its measured GI50.
Output line: 83 µM (inactive)

Input line: Would you kindly share the measured GI50 for `Cc1ccc(/C=C2\CCC/C(=C\c3ccc(O)c(CN4CCCCC4)c3)C2=O)cc1` ?
Output line: 5.09 µM (inactive)

Input line: Return reported GI50; argument: `CN1CCN(c2ccc3[nH]c(-c4ccc5[nH]c(-c6ccc(O)cc6)nc5c4)nc3c2)CC1`
Output line: 52.1 µM (inactive)

Input line: Given CCOC(=O)C1C(c2ccc(OC)cc2)c2c(n[nH]c2O)CC1(C)O (configuration not stated) , state its recorded GI50.
Output line: > 100 µM (inactive)

Input line: I am curious: what GI50 value has been reported for `CC(C)S(=O)(=O)ON1C(=O)c2ccc(N(C)C)cc2C1=O` ?
Output line: 20.1 µM (inactive)

Input line: Given `N#Cc1c(C#N)c(SSc2c(C#N)c(C#N)c(N)n2-c2ccc(F)cc2)n(-c2ccc(F)cc2)c1N` , state its recorded GI50.
Output line: 5.93 µM (inactive)

Input line: Using the record for `Clc1ccc2c(Cl)nc(-c3ccccc3)nc2c1` , report its GI50.
Output line: 26.2 µM (inactive)

Input line: // query GI50 value for entry CC(=O)NC(CCCCN(Cc1ccccc1)C(=O)N(CCCl)N=O)C(=O)NCc1ccccc1 (configuration not stated)
Output line: 24.3 µM (inactive)

Input line: State the recorded GI50 for this entry: O=C(O)C1C2OC(C(Br)C2Br)C1C(=O)O (configuration not stated)
Output line: > 100 µM (inactive)

Input line: Which GI50 is listed for c1ccc2c(c1)CCCN1CCc3ccccc3C21 (configuration not stated) ?
Output line: 77.1 µM (inactive)

Input line: Need GI50, item `C[N+]1(CCCC[N+]2(C)CCCCCCC2)CCCCCCC1`
Output line: > 100 µM (inactive)

Input line: Given the compound `O=C1C=CC(=O)c2c(O)c(N(CCCl)CCCl)c(Cl)c(O)c21` , what is its reported GI50?
Output line: 3.3 µM (inactive)

Input line: Find the recorded GI50 belonging to `CCOC(=O)/C=C(\C(=O)OCC)n1ccc(=O)n(Cc2cn(CCCCOC(C)=O)nn2)c1=O` and report it.
Output line: 17.4 µM (inactive)

Input line: Look up GI50 for this compound: `COc1ccc(/N=C2/SC(=N/N=c3\sc4ccccc4n3C)S/C2=N/c2ccc(OC)cc2)cc1`
Output line: > 100 µM (inactive)

Input line: What measured GI50 goes with `C=C(Cl)COC(=O)Nc1cccc(Cl)c1` ?
Output line: 31 µM (inactive)

Input line: Give the measured GI50 of `COc1ccc([C@H]2CC(=O)C[C@H](c3ccc(OC)cc3OC)C23C(=O)c2ccccc2C3=O)c(OC)c1` .
Output line: > 100 µM (inactive)

Input line: GET /values?readout=GI50&item= `CC(C)=CC(=O)C/C(=N\NC(N)=S)C(=O)Nc1ccc(Cl)cc1`
Output line: > 100 µM (inactive)

Input line: Requested field: GI50. Item: CN1Cc2cc(O)c(O)cc2C(O)C1 (configuration not stated)
Output line: > 100 µM (inactive)

Input line: // returns reported GI50 for input CC1(C)C2CCC1(CS(=O)(=O)Nc1ccccc1)C(=O)C2 (configuration not stated)
Output line: > 100 µM (inactive)

Input line: Given the entry `CCOc1cc(NC(C)=O)ccc1C(=O)NNS(=O)(=O)c1ccc(NC(C)=O)cc1` , report its measured GI50.
Output line: > 100 µM (inactive)

Input line: Record request: GI50 value, item O=P(Nc1cccc(Cl)c1)(Oc1ccccc1)N(CCCl)CCCl (configuration not stated)
Output line: 14.1 µM (inactive)

Input line: GI50 lookup needed for `O=C(Cn1c(=O)oc2ccc(C(=O)c3cccc(Cl)c3)cc21)c1ccccc1` , thanks.
Output line: 19.5 µM (inactive)

Input line: Given the entry `O=C(O)CCc1nc2cc3ccccc3cc2[nH]c1=O` , report its measured GI50.
Output line: > 100 µM (inactive)

Input line: Given `CCOC(=O)C(C)(C)Oc1ccc(/C=C/C(=O)c2ccc(Cl)cc2)cc1` , state its recorded GI50.
Output line: 18.4 µM (inactive)

Input line: Which GI50 is listed for N#Cc1nc(C(CO)N(Cc2ccccc2)C(=O)O)oc1N (configuration not stated) ?
Output line: > 100 µM (inactive)

Input line: So what does the record say about GI50 for `O=C(CCN1CCOCC1)Nc1ccc2sc3ccccc3c(=O)c2n1` ?
Output line: 62.2 µM (inactive)

Input line: Find the recorded GI50 belonging to CCCCCCCCCCCCCCCCCCNc1ccn(C2OC(COP(=O)(O)OCC3OC(n4cc(C)c(=O)[nH]c4=O)CC3O)C(O)C2O)c(=O)n1 (configuration not stated) and report it.
Output line: 18.1 µM (inactive)

Input line: Look up GI50 for this compound: O=CC1CCCc2ccccc21 (configuration not stated)
Output line: > 74.3 µM (inactive)

Input line: Please look up its GI50: `CS(=O)(=O)c1nc(-c2cc3c(c(S(C)(=O)=O)n2)CCC3)cc2c1CCCCC2`
Output line: > 100 µM (inactive)

Input line: Sample C=C(C)C1CC=C(C)C(=O)C1 (configuration not stated) [CARVONE] — what was its GI50?
Output line: > 100 µM (inactive)

Input line: Find the recorded GI50 belonging to CC[C@@]1(O)C(=O)OCc2c1cc1n(c2=O)Cc2c-1nc1ccccc1c2/C=N\NC(=O)C(N)CS (some centres not stated) and report it.
Output line: 7.26 µM (inactive)

Input line: I am curious: what GI50 value has been reported for `COc1cccc2c1-c1ccccc1[C@H](Nc1ccccc1)[C@@]2(C)O` ?
Output line: 6.11 µM (inactive)

Input line: Look up GI50 for this compound: `c1ccc(C2=Nn3c(CCCCCCCCc4nnc5n4N=C(c4ccccc4)CS5)nnc3SC2)cc1`
Output line: > 100 µM (inactive)
